Tested on: COLO 205 colon
Assay: NCI-60 one-dose screen, 48 h (100 = growth as untreated, 0 = no growth, -100 = all killed)
Details: 10 µM unless noted
Compounds without any hit were thinned out: in the full panel of roughly 83,000, 20% have a hit.
observation-type: growth (%)
Return type: number; implicit unit %.

## Input Quick one: give measured growth for `N#Cc1c(-c2cccc3ccccc23)cc(-c2cccc(OCC(=O)O)c2)[nH]c1=O`
## Output 106

## Input Quick one: give measured growth for `N#Cc1c(-c2ccc(Cl)cc2)nc2n[nH]c(-c3ccc(Cl)cc3)c2c1-c1ccc(C(F)(F)F)cc1`
## Output -88.5

## Input Quick one: give measured growth for `O=C(/C=C/c1cccc(OCc2ccccc2)c1)c1nc2ccccc2[nH]1`
## Output -31.7

## Input Quick one: give measured growth for `O=c1[nH]c(=O)c2c(-c3cc4ccccc4oc3=O)ccnc2[nH]1`
## Output 108

## Input Quick one: give measured growth for `CN1CCN(c2ccc(C(=O)/C=C/c3cc(C(F)(F)F)cc(C(F)(F)F)c3)cc2)CC1`
## Output -83.4

## Input Quick one: give measured growth for `CC(C)CCNC(=O)N/C(N)=N/c1nc2ccccc2s1`
## Output 103

## Input Quick one: give measured growth for `COc1cc(-c2ccc(/C=N/NC(=O)c3[nH]c4ccc(Br)cc4c3-c3ccccc3)o2)cc(OC)c1OC`
## Output 94.7

## Input Quick one: give measured growth for `CN(C)c1nc(NCCNS(=O)(=O)c2ccc(C(=O)/C=C/c3ccc(F)cc3)cc2)nc(Nc2ccc(F)cc2)n1`
## Output -85.7

## Input Quick one: give measured growth for `COc1cc2oc(-c3cccc(C(=O)Nc4ccc(Cl)cc4)c3)cc(=O)c2c(OCCNC(=O)[C@H](CCC(=O)OC(C)(C)C)NC(=O)OC(C)(C)C)c1OC`
## Output 117

----------
System: NCI-H23 lung
Test: NCI-60 one-dose screen, 48 h (100 = growth as untreated, 0 = no growth, -100 = all killed)
Conditions: 10 µM unless noted
About 83,000 compounds went through this panel and 20% of them were active in at least one assay; those are over-represented in the sample as a whole. Activity calls are given as the source filed them. How the source made its calls: active means growth percent below 10; inactive means the rest.
Please go through the items and note down their growth.

## Input Name the value of growth reported for `S=C(NCCc1ccccc1)Nc1ccc(OCc2nc3ccccc3[nH]2)cc1` when tested on NCI-H23 lung.
## Output 104% (inactive)

## Input Name the value of growth reported for C=C1CCC2C3(C)COC(c4ccccc4)OC3CCC2(C)C1CC(NCc1ccccc1)C1=CCOC1=O (stereo not given) when tested on NCI-H23 lung.
## Output 80.8% (inactive)

## Input Name the value of growth reported for `N#Cc1ccc(C(=O)Nn2c(N)cc3ccccc3c2=O)cc1` when tested on NCI-H23 lung.
## Output 93.8% (inactive)

## Input Name the value of growth reported for `COc1ccc(C(=O)/C=C/c2cccc3ccccc23)cc1S(N)(=O)=O` when tested on NCI-H23 lung.
## Output -20.5% (active)

## Input Name the value of growth reported for `Cc1cc(=O)oc2cc(OCCOc3ccc(/C=C/C(=O)Nc4ccccc4N)cc3)ccc12` when tested on NCI-H23 lung.
## Output 46.5% (inactive)

## Input Name the value of growth reported for `CC(C)c1ccc2c(N)c(C(=O)Nc3ccc(C(F)(F)F)cn3)sc2n1` when tested on NCI-H23 lung.
## Output 43.5% (inactive)

## Input Name the value of growth reported for `COc1ccc(-c2ccc(SCC(=O)Nc3ccc(S(N)(=O)=O)cc3Br)nn2)cc1` when tested on NCI-H23 lung.
## Output 77.4% (inactive)

## Input Name the value of growth reported for `COc1ccc(-c2nnc3ccc(N/N=C/c4ccc(C)cc4)nn23)cc1` when tested on NCI-H23 lung.
## Output 50.7% (inactive)

## Input Name the value of growth reported for `S=C(Nc1ccc(OCc2nc3ccccc3[nH]2)cc1)NC1CCCCC1` when tested on NCI-H23 lung.
## Output 101% (inactive)

## Input Name the value of growth reported for `O=C(CCN1C(=O)/C(=C/c2ccc(F)cc2)SC1=S)N1CCOCC1` when tested on NCI-H23 lung.
## Output 67.9% (inactive)

## Input Name the value of growth reported for `CC(=O)Oc1ccccc1C(=O)[Se]C(=NC1CCCCC1)NC1CCCCC1` when tested on NCI-H23 lung.
## Output -79.9% (active)

## Input Name the value of growth reported for COc1ccc(N2N=C(c3ccc4c(c3)OCO4)CC2c2cccc(NC(=O)CCCNS(=O)(=O)c3ccc(F)cc3)c2)cc1 (stereo not given) when tested on NCI-H23 lung.
## Output 73.7% (inactive)

## Input Name the value of growth reported for CCOC(=O)C1=C(N)N(c2ccccc2)C2=C(C(=O)CC(C)(C)C2)C1c1ccc(Cl)cc1Cl (stereo not given) when tested on NCI-H23 lung.
## Output 34.5% (inactive)

## Input Name the value of growth reported for `CCCCSc1nc(Nc2ccc(C(C)=O)cc2)c(C#N)c(-c2ccc(OC)cc2)n1` when tested on NCI-H23 lung.
## Output 60.8% (inactive)

## Input Name the value of growth reported for `Cc1cc(=O)oc2cc(OCCCCOc3ccc(/C=C/C(=O)Nc4ccccc4N)cc3)ccc12` when tested on NCI-H23 lung.
## Output 76% (inactive)

## Input Name the value of growth reported for COc1ccc(NC(=O)[C@H](CO)NC(=O)OC(C)(C)C)cc1C(=O)Nc1cccc(C2CC(=O)c3c(cc(OC)c(OC)c3OC)O2)c1 (stereo not given in full) when tested on NCI-H23 lung.
## Output 50.7% (inactive)

## Input Name the value of growth reported for `Cn1cc(-c2nnc(N)nc2-c2c[nH]c3ccc(F)cc23)c2cccnc21` when tested on NCI-H23 lung.
## Output 53.7% (inactive)

## Input Name the value of growth reported for `CCCSc1nc(Nc2ccc(S(N)(=O)=O)cc2)c(C#N)c(-c2ccc(Cl)cc2)n1` when tested on NCI-H23 lung.
## Output 31.4% (inactive)

## Input Name the value of growth reported for `N#Cc1c(-c2ccccc2Cl)cc(-c2ccc3ccccc3c2)[nH]c1=O` when tested on NCI-H23 lung.
## Output 38.8% (inactive)

## Input Name the value of growth reported for C=C1CCC2C3(C)COC(c4cc(F)cc(F)c4)OC3CCC2(C)C1CC(O)C1=CCOC1=O (stereo not given) when tested on NCI-H23 lung.
## Output 64.9% (inactive)

Where these numbers come from: PubChem BioAssay (NCI)
